Measured values drawn from ChEMBL document CHEMBL1130761 for this set.

Species on record: Rattus norvegicus
Assay: Mechanoinhibitory activity was evaluated by spontaneous contraction of rat portal vein.
Type: functional
Measure Name: IC50 (µM)

Sample answers from the record:
> print(dat)
                                        smi  recorded.measurement
1  CCC(=O)N1CCO[C@H]2[C@H]1c1cc(C#N)ccc1OC2(C)C                  64.9
2  CC(=O)N1CCO[C@@H]2[C@H]1c1cc(C#N)ccc1OC2(C)C                   2.7
3  CC1(C)Oc2ccc(C#N)cc2[C@@H]2[C@H]1OCCN2C=O                  62.8
4  CC1(C)Oc2ccc(C#N)cc2[C@@H]2[C@H]1OCCN2C(=O)c1ccccc1                  34.5
5  CC(C)C(=O)N1CCO[C@H]2[C@H]1c1cc(C#N)ccc1OC2(C)C                   127
6  CN1C(=O)CO[C@H]2[C@H]1c1cc(C#N)ccc1OC2(C)C                  50.2

P = CC1(C)Oc2ccc(C#N)cc2[C@@H](N2CCCC2=O)[C@@H]1O
Q = CC(C)C(=O)N1CCO[C@@H]2[C@H]1c1cc(C#N)ccc1OC2(C)C
R = CC(=O)N1CCO[C@H]2[C@H]1c1cc(C#N)ccc1OC2(C)C
Ranking field: IC50; order: falling. Field: ranking. Enter the labels in the order requested.
Q, R, P
(Q: 18.4 µM, R: 5.9 µM, P: 0.13 µM)

====

Organism: Rattus norvegicus
Test: Mechanoinhibitory activity was evaluated in KCl stimulated rat detrusor strip
Assay type: functional
Measure Name: IC50 (µM)

Example entries and their recorded answers appear below.
> print(dat)
                                        smi  recorded.measurement
1  CC(C)C(=O)N1CCO[C@@H]2[C@H]1c1cc(C#N)ccc1OC2(C)C                  56.4
2  CN1C(=O)CO[C@H]2[C@@H]1c1cc(C#N)ccc1OC2(C)C                  65.7
3  CC1(C)Oc2ccc(C#N)cc2[C@@H]2[C@@H]1OCCN2C(=O)c1ccccc1                    66

1 = CC1(C)Oc2ccc(C#N)cc2[C@@H]2[C@H]1OCCN2C=O
2 = CC1(C)Oc2ccc(C#N)cc2[C@@H]2[C@@H]1OCCN2C=O
3 = CC(=O)N1CCO[C@@H]2[C@H]1c1cc(C#N)ccc1OC2(C)C
4 = CC1(C)Oc2ccc(C#N)cc2[C@@H](N2CCCC2=O)[C@@H]1O
Ascending by IC50, please: list the compounds accordingly. Return value: ordered labels per request.
4, 3, 1, 2
(4: 0.82 µM, 3: 8.8 µM, 1: 51.8 µM, 2: 152 µM)

1 = CN1C(=O)CO[C@H]2[C@H]1c1cc(C#N)ccc1OC2(C)C
2 = CC1(C)Oc2ccc(C#N)cc2[C@@H]2[C@@H]1OCC(=O)N2Cc1ccccc1
Quick one: lower IC50, 1 or 2 ? State your choice using its label.
1
(1: 43.8 µM, 2: 68.2 µM)
